// data source = the DeepSol protein solubility set

Test: soluble on expression in E. coli; label from the status in PepcDB or PDB records
Observed Property: soluble on expression in E. coli

[[record]]
record_sequence = "MIDKHVACERPLTVYLNWRPIVTLMTLGAKPESLALGYLKNQGFISDVSQLESVIVDWGVNSAAVLTREQTADIDKKLSEKTVTSGCGQGTVYGSFMQDLEGIQLPRPSLKQSTLYSLLKNINEYNDTYKNAGAVHGCGVCEADQILAFVEDVGRHNAVDTLAGDMWLAQDRGDNKIFYTTGRLTSEMVIKVAKMGIPVLLSRSGVTQMGLELAQNLGITIIARAKGRHFLVYHGSENLEFDVNTSPSKLEHHHHHH"
readout_value = "not soluble"

[[record]]
record_sequence = "MGSDKIHHHHHHMTTLLRTRRFPPLNALRAFEAAARHLNFRLAADELGVTQGAVAQQVRHLEDVVAVQLFRRLPRGLALTREGLEYFSSVQRALQIISDATDALGERPTVLAVSTTPSFASKWLIPRLADFGRLHPDIEVRVIADERLASFRADGVDIAIRLSKPPFPAGLAAELLAPLDIFAVASPKLLDSGPPIRTPADLSTHALLHDAHDLWPEFIEKLGGKGRADPTKGPRFSQSLLAIDAAVAGQGIALTSEPLVERDIAEGRLRRVFDFSFPMSLGFYVVFPQANAHSEALQAMRRWLFAQYGKA"
readout_value = "not soluble"

[[record]]
record_sequence = "SLDGAHKMARVWVGILNWSLKHIVGLKYRIIGAENIPDRPAVICAKHQSGWETLALQDIFPPQVYVAKRELFKIPFFGWGLKLVKTIGIDRNNRREANEQLIKQGLVRKNEGYWITIFPEGTRLAPGKRGKYKLGGARMAKMFEMDIVPVALNSGEFWPKNSFLKYPGEITVVICPTIPHASGSEAELMEKCEHLIETQQPLISGAGPFAAKMPSETAEG"
readout_value = "soluble"

[[record]]
record_sequence = "MLYPNERKSSVHAIPYQDQLKQVQSAVDEFQKANGGLLPIQTKDMSTPLYQKYPIDFNRLAPRYIAEPPSTAFESGGDYQYVLVDVENDPTVKLIDLKMAEKIRDVKLRIQMYRQEHQYPPYKDVLSRDLFTLDEKKLGDGSSLTVTSPISGNSLPLMIDGDGEIYADYRTELASCLKKSKKTFKPGTEIQDMIWHETPFVPAFSVKYTVNDKQEPVFLENDMKKELEHHHHHH"
readout_value = "soluble"

[[record]]
record_sequence = "MKGVRSMMGNLVITIGRECGSAGRLIGQKLAADLGVKCYDKELLTLAAKNSGLCEELFKTHDEKPTSSFLYSLVMDTYSLGYNTSAYMDMPINHKIFLAQFDTIKKLAEEESCVIVGRCADYALADYPNTVSVFICGDEEDKIRHLMERHNVDEAKAKDIMIKTDKRRASYYNYYSSKRWGSCKSYDMCISSSAVGYDGAVDIIKEFAKKKQEFLKTKNYK"
readout_value = "not soluble"

[[record]]
record_sequence = "MANDEQQQLLNKIVRDDSQDKQVLLMINGAAGTGKTFLIKLIENSMNRSVRKRVVLMTGSTGKAAKAIGGRTLHCTIGLPNEKPEDLERLKYQAFICVTTRLIIIDEITLLASWHLDATDMVLKRTPKRTDALFGGLSIILVGDLRQLNLGGWRGKKQIDTVFIKVGGYPDPISCQNVCD"
readout_value = "not soluble"


* * *

Experiment: soluble on expression in E. coli; label from the status in PepcDB or PDB records
Observed Property: soluble on expression in E. coli

[[record]]
record_sequence = "HMSSGNASWFQAIKAKKLNTPPPKFEGSGVPDNENMKPSQQHGYWRRQARFKPGKGGRCPVPDAWYFYYTGTGPAADMNWGDTQDGIVWMAAKGADTKSRSNQGTRDPDKFDQYPLRFSDGGPDGNFRWDFIPL"
observed_property = "soluble on expression in E. coli"
readout_value = "soluble"

[[record]]
record_sequence = "MVSQVRQNYHSDCEAAVNRMLNLELYASYTYSSMYAFFDRDDVALHNVAEFFKEHSHEEREHAEKFMKYQNKRGGRVVLQDIKKPERDEWGNTLEAMQAALQLEKTVNQALLDLHKLATDKVDPHLCDFLESEYLEEQVKDIKRIGDFITNLKRLGLPENGMGEYLFDKHSVKESS"
observed_property = "soluble on expression in E. coli"
readout_value = "soluble"

[[record]]
record_sequence = "MIAITGATGQLGHYIIESLMKTVPASQIVAIVRNPAKAQALAAQGITVRQADYSDEAALTSALQGVEKLLLISSSEVGQRAPQHRNVINAAKAAGVKFIAYTSLLHADTSPLGLADEHIETEKMLADSGIVYTLLRNGWYSENYLASAPAALEHGVFIGAAGDGKIASATRADYATAAARVISEAGHEGKVYELAGDSAWTLTQLAAELTKQSGKQVTYQNLSEADFAAALKSVGLPDGLADMLADSDVGASKGGLFDNSKTLSKLIGCPTTTLAESVSHLFNVNN"
observed_property = "soluble on expression in E. coli"
readout_value = "not soluble"

[[record]]
record_sequence = "MGSDKIHHHHHHMRIGCVLARKGKMMMNGELAGFTIPRLGMGTMALAIEGRPDRDTAIRTIHAGLDAGVRYLDTAWSYYLPSEPGTGTAKDLGYGEKLVRDALASWNGPRDEVLVATKTGYRRTMEIPAFVAPVSDSPESDTQGRDSEGCSRRPGGERQHLQAAGSQYGWMADSRPETMIRDAKESALHLGVDTLDLLYSHGPDPEVAYEDQVGALKQLLNEGVIRYAGISRVDNAQIDIAREILGDKLIAVQNQFSPSHPDPEHTMEHCAELGLAFVCWSPLGGFLDAFDQRAYDPFRTVAGNHGCSYQRVVLAWELSRYERLFTIPSARNPQEINDSFAATELTLTQDELAMLNASVDARRG"
observed_property = "soluble on expression in E. coli"
readout_value = "not soluble"

[[record]]
record_sequence = "MNTELQPKLEKSAVNFQAKPRKQKIRKDPNAPFIREKLELPDGHNKLLLHSCCAPCSGEVMEAILASGIEFTIYFYNPNIHPLKEYLIRKEENIRFAKKFGIPFIDADYDRQNWFDRAKGMEWEPERGIRCTMCFDMRFEKAAEYAHKHGFPVFTSCLGISRWKDMNQINGCGHRAAEKYDDVIYWDYNWRKEGGSQRMIEISKRERFYQQEYCGCVYSLRDSNKWREETGRQKIEIGKLYYSAD"
observed_property = "soluble on expression in E. coli"
readout_value = "not soluble"

[[record]]
record_sequence = "SKEFFAPQRAGMKLRTFSDIDKYYTEQKKQEYHKEKVRVVAMAQVARERVRVAVNEHLNQKKYATQKLIEENKETIQNSLRQVWQNRFNYLEKARERKALFLKEKSQKASERLLVQNLNNERTLLTRGLLKIDRLEKNEAVLKEKSLIVKQKLKAEKYRKNLLKEMKKVRSQEIYKRHCEEKFVMDMIAFEKACERLQDAKTKVAIVKTNLDFKVPNGLIK"
observed_property = "soluble on expression in E. coli"
readout_value = "soluble"


* * *

Assay: soluble on expression in E. coli; label from the status in PepcDB or PDB records
Observed Property: soluble on expression in E. coli

[[record]]
record_sequence = "MISITSAEVGMKINEWHRHIQKFNVTDAEMLKAEIERDIEVMEEDQDLLIYYQLMAFRHKIMLEYTLPSDENRMELSEYLNKIEGHKKKLDNMRAYYYNFFRGMYEFRNGEYTRAITYYKKAERKIPTISDKIEKAEFYFKLSEVYYHMKMTHISMHYAELSYNIYKKHELYSVRRIQCHFVIAGNYDDLENHEKALPHLQEALKGAELLKSKNTHIYATAFFNLGNCYHKMDNLNKAARYIEQALVQYRKINSDVLPQAYHDLALIYFKQGKKGQAMDCFRKGIRSAVDFKDELFMNLFEALDVLYIRNGDTPKLLNIFSRLENGKGYPYLEELALLGGNLFDYNGKIEDSIICFKK"
readout_value = "not soluble"

[[record]]
record_sequence = "AIAPRNNKTSLIQKIASQAYATFTNCSSSAIEDNNKVFLEHQADLVALLSDIRAADLKIAPPTKVSTSSPSVPPVTYMHICETDVFSMGVFLLKSGASIPLHDHPGMHGMLKVLYGKVSIRCYDKLDKAESDTERHFDPPLLAFQGDDVRRAALRSSGQFSELSGPCVLSPFKDNLHEIDAVDGAAAFLDILAPPYDPDDGRDCHYYRVLQTAGKKSEQSGDDEAWLLEIPQPDDFWCGGEPYPGPEVTI"
readout_value = "soluble"

[[record]]
record_sequence = "MANEVIKCKAAVAWEAGKPLSIEEIEVAPPKAHEVRIKIIATAVCHTDAYTLSGADPEGCFPVILGHEGAGIVESVGEGVTKLKAGDTVIPLYIPQCGECKFCLNPKTNLCQKIRVTQGKGLMPDGTSRFTCKGKTILHYMGTSTFSEYTVVADISVAKIDPLAPLDKVCLLGCGISTGYGAAVNTAKLEPGSVCAVFGLGGVGLAVIMGCKVAGASRIIGVDINKDKFARAKEFGATECINPQDFSKPIQEVLIEMTDGGVDYSFECIGNVKVMRAALEACHKGWGVSVVVGVAASGEEIATRPFQLVTGRTWKGTAFGGWKSVESVPKLVSEYMSKKIKVDEFVTHNLSFDEINKAFELMHSGKSIRTVVKI"
readout_value = "soluble"

[[record]]
record_sequence = "MGSDKIHHHHHHMGTHTEAMPSTTFAQTAVLSQRQRATLNALSAFPQGAQVSEIAASLGLHVNTVRGHLEELVTKNLVRTAPLPSTGRGRPVLMYHATSATPETVAQEYLSLISLLIQHIDLRQPDEIDEVAKVLGKQWAHSIFADHHLEELNGEQTLITLINYLRHLGFDPEVEKTQDPTTSMLQLRTCPFGSMAHAPLSFVCRAHEGMLSAVEKTGGISFELTPLSAPHQCSIVAQLHGNETIHRQRGEEHPHAGHR"
readout_value = "not soluble"

[[record]]
record_sequence = "FVNKDQIAKDVKQFYDQALQQAVVDDDANNAKAVVKTFHETLDCCGSSTLTALTTSVLKNNLCPSGSNIISNLFKEDCHQKIDDLFSGKH"
readout_value = "soluble"

[[record]]
record_sequence = "MVNFKDKSMPTAIEKALDFIGGMNTSASVPHSMDESTAKGILKYLHDLGVPVSPEVVVARGEQEGWNPEFTKKVAGWAEKVASGNRILIKNPEYFSTYMQEQLKELVLEHHHHHH"
readout_value = "soluble"

[[record]]
record_sequence = "VADVVPLDHNNRILVSQGLKRMRSGKMRPGIRALFEVARRDWRKAQPFDMGFALGPRINAAGRLDDMSVGIACLLARDDSEAQELAAQLNNLNIERREIEQSMLQDALNDFPETLPSGQMTLVAYRDDFHQGVVGIV"
readout_value = "not soluble"

[[record]]
record_sequence = "MHILDIWHRRNSRSYIAHLRSLGIRIGDGCIFRDPLTTRIDVSRPALVSIGSNVDMNTYFQILTHDWASFVFRNKYHDFVNSSGRVEIGSNIYIGTNVIVLRGVTIGDNCVIGAGSVVTHDIPANSVAVGAPCRVVCSLEHHHHHH"
readout_value = "not soluble"

[[record]]
record_sequence = "MQLTIKNKDLNTLYRVLDKIKITNMRANRGRAKLLAKVVDKINEYAKDETDLIDMYAAKDKDDKFVIDEHKNIKLADPAKLDELNDLLNELADEEIVIKGGEYSKRFIDFLNFLEECEDEFTSSEIILIDNILEQFEESKKGE"
readout_value = "not soluble"

[[record]]
record_sequence = "MPMTLGYWNIRGLAHSIRLLLEYTDSSYEEKKYTMGDAPDYDRSQWLNEKFKLGLDFPNLPYLIDGTHKITQSNAILRYIARKHNLCGESEKEQIREDILENQFMDSRMQLAKLCYDPDFEKLKPEYLQALPEMLKLYSQFLGKQPWFLGDKITFVDFIAYDVLERNQVFEPSCLDAFPNLKDFISRFEGLEKISAYMKSSRFLPRPVFSKMAVWGNK"
readout_value = "soluble"

[[record]]
record_sequence = "VGEKITKMKEESHKTKQTKTEDPITKETYQARQRTLLQRDYLLVHIEDLLPKQVFAVSVINDYLVCIQAQGLEPMSDVGLLGKHQFYLRTYHYFV"
readout_value = "not soluble"

[[record]]
record_sequence = "MHHHHHHGKPIPNPLLGLDSTENLYFQGIDPFTDVAAPSPAAAAEPGPAARPRSTRGQVRLPGGEFAMGDAFGEGYPADGETPVHTVRLRPFHIDETAVTNARFAAFVKATGHVTDAERFGSSAVFHLVVAAPDADVLGSAAGAPWWINVRGAHWRRPEGARSDITGRPNHPVVHVSWNDATAYARWAGKRLPTEAEWEYAARGGLAGRRYAWGDELTPGGRWRCNIWQGRFPHVNTAEDGHLSTAPVKSYRPNGHGLWNTAGNVWEWCSDWFSPTYYAESPTVDPHGPGTGAARVLRGGSYLCHDSYCNRYRVAARSSNTPDSSSGNLGFRCANDADLTSGSAAE"
readout_value = "soluble"

[[record]]
record_sequence = "GSSHHHHHHMLKIGSHVSMSGKKMLLAASEEAVSYGATTFMIYTGAPQNTRRKPIEELNIEAGRKHMEQNGIEEIIIHAPYIINVGNTTKPETFQLGVDFLRMEIERTSALGVAKQIVLHPGAHVGAGADAGIQQIIKGLNEVLTPDQTVNIALETMAGKGTECGRSFEEIAKIIDGVKYNEKLSVCFDTCHTHDAGYDIVNNFDGVLNEFDKIVGIDRLQVLHINDSKNVRGAGKDRHENIGFGHIGYKALHHIVHHPQLTHVPKILETPYVGEDKKDKKPPYKLEIEMLKNGTFDEGLLEKIKAQ"
readout_value = "soluble"

